- Tested Target: human HPK1 protein (Homo sapiens, UniProt Q92918)
- Construct: recombinant human HPK1 protein (a.a. 1-346) was expressed in Sf9 insect cells; GST (N); purchased Signalchem M23-11G; host or cells: Sf9 insect cells (baculovirus)
- Sequence (Q92918 1-346): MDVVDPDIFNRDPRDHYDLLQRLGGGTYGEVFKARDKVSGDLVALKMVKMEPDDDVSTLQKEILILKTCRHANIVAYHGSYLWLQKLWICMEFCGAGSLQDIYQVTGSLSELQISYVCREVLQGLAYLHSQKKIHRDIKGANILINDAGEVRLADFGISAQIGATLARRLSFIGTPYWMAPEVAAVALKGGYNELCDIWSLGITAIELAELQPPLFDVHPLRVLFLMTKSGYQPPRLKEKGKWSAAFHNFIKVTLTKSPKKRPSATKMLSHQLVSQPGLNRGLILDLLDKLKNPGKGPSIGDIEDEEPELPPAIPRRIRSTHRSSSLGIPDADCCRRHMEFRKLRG
- Test Details: Human HPK1 protein TR-FRET assay
- Type: biochemical
- Condition Details: 1 mM ATP, Table 19
Quantity Measured: IC50

>  <Compound>
CCC1CN(C(=O)Nc2ccc(CN3CCN(CC)CC3)c(C(F)(F)F)c2)Cc2cc(Oc3ccnc4[nH]ccc34)ccc21 (stereo not shown) [IV-21]

>  <Observed>
< 0.5 µM

$$$$
>  <Compound>
CCN1CCN(Cc2ccc(NC(=O)N3CCc4cc(F)c(Oc5ncnn6cccc56)cc4C3C)cc2C(F)(F)F)CC1 (stereo not shown) [IV-35]

>  <Observed>
< 0.5 µM

$$$$
>  <Compound>
CCN1CCN(Cc2ccc(NC(=O)N3CCc4cc(F)c(Oc5ccnc6[nH]ccc56)cc4C3)cc2C(F)(F)F)CC1

>  <Observed>
< 0.5 µM

$$$$
>  <Compound>
CCN1CCN(Cc2ccc(NC(=O)N3CCc4ccc(Oc5ccnc(C(=O)NC)c5)cc4[C@@H]3C)cc2C(F)(F)F)CC1

>  <Observed>
< 0.5 µM

$$$$
>  <Compound>
Cc1cc2c(Oc3cnc4c(c3)CN(C(=O)Nc3cnc(OC5CCN(C)CC5O)c(C(F)(F)F)c3)CC4C)ccnc2[nH]1 (stereo not shown)

>  <Observed>
< 0.5 µM

$$$$
>  <Compound>
CCN1CCN(Cc2ccc(NC(=O)N3CCc4ccc(Sc5ncnn6cccc56)cc4C3)cc2C(F)(F)F)CC1

>  <Observed>
0.5 to 5 µM

$$$$
>  <Compound>
C[C@H]1c2cc(Oc3ccnc4[nH]ccc34)ccc2CCN1C(=O)Nc1ccc(CN2CCNCC2)c(C(F)(F)F)c1

>  <Observed>
< 0.5 µM

$$$$
>  <Compound>
CCN1CCN(Cc2ccc(NC(=O)N3CCc4ccc(Oc5ccnc(NC(=O)C6CC6)c5)cc4C3)cc2C(F)(F)F)CC1

>  <Observed>
< 0.5 µM

$$$$

query: Write IC50 of `CCN1CCN(Cc2ccc(NC(=O)N3CCc4ccc(Oc5ccnn6cc(C#N)cc56)cc4[C@@H]3C)cc2C(F)(F)F)CC1` ; system used: human HPK1 protein (Homo sapiens, UniProt Q92918)
result: < 0.5 µM

query: Write IC50 of CCN1CCN(Cc2ccc(NC(=O)N3Cc4cc(Oc5ccnc6[nH]c(C)cc56)ccc4C(C)C3)cc2C(F)(F)F)CC1 (stereo not shown) [IV-17] ; system used: human HPK1 protein (Homo sapiens, UniProt Q92918)
result: < 0.5 µM

query: Write IC50 of `Cc1cc2c(Oc3ccc4c(c3)[C@H](C)N(C(=O)Nc3cnc(OCCCN(C)C)c(C(F)(F)F)c3)CC4)ccnc2[nH]1` ; system used: human HPK1 protein (Homo sapiens, UniProt Q92918)
result: 0.5 to 5 µM

query: Write IC50 of `CCN1CCN(Cc2ccc(NC(=O)N3CCc4ccc(Oc5ccnc6c5CCC(=O)N6)cc4C3)cc2C(F)(F)F)CC1` ; system used: human HPK1 protein (Homo sapiens, UniProt Q92918)
result: < 0.5 µM

query: Write IC50 of Cc1cc2c(Oc3ccc4c(c3)CN(C(=O)Nc3cnc(OC5CCN(C)CC5)c(C(F)(F)F)c3)CC4C)ccnc2[nH]1 (stereo not shown) [IV-38] ; system used: human HPK1 protein (Homo sapiens, UniProt Q92918)
result: < 0.5 µM
